Where do these numbers come from? They come from patent US11306095B2.

Target: Wild type EGFR (Homo sapiens, UniProt P00533)
Construct: purchased Invitrogen PV3872
Sequence (P00533 25-1210): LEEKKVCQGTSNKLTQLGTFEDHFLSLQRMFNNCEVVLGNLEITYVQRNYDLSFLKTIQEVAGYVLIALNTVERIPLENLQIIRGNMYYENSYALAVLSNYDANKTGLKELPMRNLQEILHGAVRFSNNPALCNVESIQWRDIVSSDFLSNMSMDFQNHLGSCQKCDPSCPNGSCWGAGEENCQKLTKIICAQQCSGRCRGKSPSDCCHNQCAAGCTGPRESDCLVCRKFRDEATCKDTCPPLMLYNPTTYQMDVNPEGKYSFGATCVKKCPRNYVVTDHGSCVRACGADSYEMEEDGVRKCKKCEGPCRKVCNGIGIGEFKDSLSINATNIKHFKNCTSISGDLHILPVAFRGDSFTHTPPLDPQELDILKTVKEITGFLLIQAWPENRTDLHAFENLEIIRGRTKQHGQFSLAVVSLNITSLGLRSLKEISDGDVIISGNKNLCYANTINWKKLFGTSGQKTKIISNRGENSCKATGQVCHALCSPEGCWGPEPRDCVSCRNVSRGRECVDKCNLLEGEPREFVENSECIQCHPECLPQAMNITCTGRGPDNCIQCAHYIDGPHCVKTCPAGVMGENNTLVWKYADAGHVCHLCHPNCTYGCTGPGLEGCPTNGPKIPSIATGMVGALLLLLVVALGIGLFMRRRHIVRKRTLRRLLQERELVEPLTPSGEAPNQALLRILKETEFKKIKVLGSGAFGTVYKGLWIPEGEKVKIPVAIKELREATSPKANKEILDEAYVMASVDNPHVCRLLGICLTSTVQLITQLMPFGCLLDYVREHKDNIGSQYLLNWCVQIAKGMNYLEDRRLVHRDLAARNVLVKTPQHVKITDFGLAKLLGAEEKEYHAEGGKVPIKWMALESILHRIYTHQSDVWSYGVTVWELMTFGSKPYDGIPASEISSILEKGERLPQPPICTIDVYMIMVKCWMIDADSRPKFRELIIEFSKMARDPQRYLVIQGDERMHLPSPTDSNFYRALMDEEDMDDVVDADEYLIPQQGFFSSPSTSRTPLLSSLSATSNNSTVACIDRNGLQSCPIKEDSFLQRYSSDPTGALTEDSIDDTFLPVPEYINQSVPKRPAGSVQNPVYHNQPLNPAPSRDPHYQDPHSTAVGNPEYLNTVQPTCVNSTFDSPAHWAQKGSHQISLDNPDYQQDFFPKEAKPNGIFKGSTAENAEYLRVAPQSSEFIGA
Assay: Kinase activity test (FRET), wild type EGFR
Type: biochemical
Conditions: wild type EGFR; read-out: Inhibitory activity of EGFR on kinase (IC50, nM) WT
VALUE TYPE: IC50 (nM)
Answer format: numeric, nM implied, no suffix.

MOL SMILES	VALUE TYPE	RECORDED NUMBER
C=CC(=O)Nc1cccc(-n2c(=O)c(-c3ccccc3)nc3cnc(Nc4cc(C)c(N5CCN(C)CC5)cc4OC)nc32)c1	IC50	2.8
C=CC(=O)Nc1cccc(-n2c(=O)c(C3CCCCC3)nc3cnc(Nc4ccc(N5CCN(C)CC5)cc4OC)nc32)c1	IC50	7.7
C=CC(=O)Nc1cccc(-n2c(=O)c(-c3cccc(OC)c3)nc3cnc(Nc4ccc(N5CCN(C)CC5)cc4OC)nc32)c1	IC50	2.8

Now let's try a different one.
(Q) Look up IC50 for this compound: `C=CC(=O)N1CC[C@H](n2c(=O)c(C(C)C)nc3cnc(Nc4ccc(N5CCN(C)CC5)cc4OC)nc32)C1`
(A) 1300

----------
Biological target: Wild type EGFR (Homo sapiens, UniProt P00533)
Construct: purchased Invitrogen PV3872
Test: Kinase activity test (FRET), wild type EGFR
Assay type: biochemical
Conditions: wild type EGFR; read-out: Inhibitory activity of EGFR on kinase (IC50, nM) WT
VALUE TYPE: log10(IC50) (log10 of the value in nM)
Remember, log10 of IC50, in nM.

Sample answers from the record:
MOL SMILES	RECORDED NUMBER
C=CC(=O)Nc1cccc(-n2c(=O)cnc3cnc(Nc4ccc(N(C)CCN(C)C)cc4OC)nc32)c1	1.67
C=CC(=O)Nc1cccc(-n2c(=O)c(C(F)(F)F)nc3cnc(Nc4ccc(N5CCN(C)CC5)c(OC)c4)nc32)c1	1.52
C=CC(=O)Nc1cccc(-n2c(=O)c(-c3ccc(F)cc3)nc3cnc(Nc4ccc(N5CCN(C)CC5)cc4OC)nc32)c1	0.11

(Q) Look up log10(IC50) for this molecule: `C=CC(=O)Nc1cccc(-n2c(=O)cnc3cnc(Nc4ccc(N5CCN(C)CC5)cc4OCCOC)nc32)c1`
(A) 1.97

(Q) Look up log10(IC50) for this molecule: `C=CC(=O)N1CCC[C@H](Cn2c(=O)cnc3cnc(Nc4ccc(N5CCN(C)CC5)cc4OC)nc32)C1`
(A) 3.34

(Q) Look up log10(IC50) for this molecule: `C=CC(=O)N1CC[C@H](n2c(=O)c(-c3ccccc3)nc3cnc(Nc4ccc(N(C)CCN(C)C)c(OC)c4)nc32)C1`
(A) 3.73

(Q) Look up log10(IC50) for this molecule: `C=CC(=O)Nc1cccc(-n2c(=O)c(-c3ccc(F)c(F)c3)nc3cnc(Nc4ccc(N5CCN(C)CC5)cc4OC)nc32)c1`
(A) 0.20

(Q) Look up log10(IC50) for this molecule: `C=CC(=O)Nc1cccc(-n2c(=O)cnc3cnc(Nc4ccc(N5CCN(CCO)CC5)cc4OC)nc32)c1`
(A) 0.34

(Q) Look up log10(IC50) for this molecule: `C=CC(=O)Nc1cccc(-n2c(=O)c(C(C)C)nc3cnc(Nc4ccc(N5CCN(C)CC5)cc4OC)nc32)c1`
(A) 1.41

(Q) Look up log10(IC50) for this molecule: `C=CC(=O)Nc1cccc(-n2c(=O)c(C(C)C)nc3cnc(Nc4ccc(N5CCN(C)CC5)c(OC)c4)nc32)c1`
(A) 0.11

(Q) Look up log10(IC50) for this molecule: `C=CC(=O)N1CCC[C@H](Cn2c(=O)c(-c3ccccc3)nc3cnc(Nc4ccc(N5CCN(C)CC5)cc4OC)nc32)C1`
(A) 2.54

(Q) Look up log10(IC50) for this molecule: `Cc1cc(Nc2ncc3nc(-c4ccccc4)c(=O)n([C@H]4CCN(C(=O)/C=C/CN(C)C)C4)c3n2)ccc1N1CCN(C)CC1`
(A) 2.25

----------
System: H1975 cells (EGFR L858R/T790M)
Experiment: Inhibitory activity on cell proliferation, H1975
Assay type: cell-based
Details: Homo sapiens, NCI-H1975; H1975, 72 hours; read-out: Inhibitory activity on proliferation of cells (IC50, μM) H1975
VALUE TYPE: log10 of IC50 (log10 of the value in µM)
Remember, log10 of IC50, in µM.

MOL SMILES	log10 of IC50
C=CC(=O)Nc1cccc(-n2c(=O)cnc3cnc(Nc4cc(C)c(N5CCN(C)CC5)cc4OC)nc32)c1	-0.34

(Q) For H1975 cells (EGFR L858R/T790M), provide log10 of IC50 of `C=CC(=O)Nc1cccc(-n2c(=O)c(C(C)C)nc3cnc(Nc4cc(C)c(N5CCN(C)CC5)cc4OC)nc32)c1` please.
(A) -0.24

(Q) For H1975 cells (EGFR L858R/T790M), provide log10 of IC50 of `C=CC(=O)Nc1cccc(-n2c(=O)cnc3cnc(Nc4ccc(N5CCN(C)CC5)cc4OCOC)nc32)c1` please.
(A) 0.02

(Q) For H1975 cells (EGFR L858R/T790M), provide log10 of IC50 of `C=CC(=O)Nc1cccc(-n2c(=O)c(C(C)C)nc3cnc(Nc4ccc(N5CCN(C)CC5)cc4OC)nc32)c1` please.
(A) -1.13

(Q) For H1975 cells (EGFR L858R/T790M), provide log10 of IC50 of `C=CC(=O)Nc1cccc(-n2c(=O)cnc3cnc(Nc4ccc(N5CCN(C)CC5)c(C)c4)nc32)c1` please.
(A) -2.22

(Q) For H1975 cells (EGFR L858R/T790M), provide log10 of IC50 of `C=CC(=O)Nc1cccc(-n2c(=O)c(-c3ccccc3)nc3cnc(Nc4ccc(N5CCN(C)CC5)c(C)c4)nc32)c1` please.
(A) -1.74

(Q) For H1975 cells (EGFR L858R/T790M), provide log10 of IC50 of `C=CC(=O)N1CC[C@H](n2c(=O)c(C(C)C)nc3cnc(Nc4ccc(N5CCN(C)CC5)cc4OC)nc32)C1` please.
(A) 0.51

----------
Biological target: EGFR-L858R/T790M (Homo sapiens, UniProt P00533, L858R/T790M)
Construct: purchased Invitrogen PV4879
Sequence (P00533 25-1210 T790M/L858R): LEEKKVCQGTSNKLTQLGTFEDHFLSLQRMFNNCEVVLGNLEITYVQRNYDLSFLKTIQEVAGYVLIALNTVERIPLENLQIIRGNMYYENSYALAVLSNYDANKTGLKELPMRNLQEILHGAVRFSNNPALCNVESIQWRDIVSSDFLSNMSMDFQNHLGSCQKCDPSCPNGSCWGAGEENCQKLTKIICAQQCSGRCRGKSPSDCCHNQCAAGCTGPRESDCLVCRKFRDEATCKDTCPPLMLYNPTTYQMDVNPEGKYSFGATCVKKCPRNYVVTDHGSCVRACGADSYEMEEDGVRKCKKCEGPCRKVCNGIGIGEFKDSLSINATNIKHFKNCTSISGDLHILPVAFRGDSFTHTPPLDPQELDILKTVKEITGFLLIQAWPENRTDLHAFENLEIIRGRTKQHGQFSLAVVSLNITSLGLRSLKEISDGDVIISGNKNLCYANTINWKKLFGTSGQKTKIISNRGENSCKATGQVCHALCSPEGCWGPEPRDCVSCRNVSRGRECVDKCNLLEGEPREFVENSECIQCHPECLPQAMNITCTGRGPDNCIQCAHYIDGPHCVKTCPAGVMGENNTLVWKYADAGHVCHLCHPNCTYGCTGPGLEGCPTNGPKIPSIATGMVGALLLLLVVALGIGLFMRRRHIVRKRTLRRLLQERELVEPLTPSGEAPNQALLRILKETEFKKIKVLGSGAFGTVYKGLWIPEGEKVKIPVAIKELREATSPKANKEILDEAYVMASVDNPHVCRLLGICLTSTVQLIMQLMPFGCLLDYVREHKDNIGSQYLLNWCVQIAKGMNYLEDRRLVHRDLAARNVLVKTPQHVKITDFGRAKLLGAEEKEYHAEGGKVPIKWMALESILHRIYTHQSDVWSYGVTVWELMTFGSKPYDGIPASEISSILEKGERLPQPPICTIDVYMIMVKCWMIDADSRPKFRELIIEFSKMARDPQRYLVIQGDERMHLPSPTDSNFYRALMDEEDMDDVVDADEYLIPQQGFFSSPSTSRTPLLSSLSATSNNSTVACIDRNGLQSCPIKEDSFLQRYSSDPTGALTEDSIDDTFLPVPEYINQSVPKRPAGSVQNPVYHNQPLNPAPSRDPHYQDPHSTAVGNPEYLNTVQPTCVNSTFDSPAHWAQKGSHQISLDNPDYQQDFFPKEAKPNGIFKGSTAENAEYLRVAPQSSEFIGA
Test: Kinase activity test (FRET), EGFR T790M/L858R
Type: biochemical
Conditions: EGFR T790M/L858R; read-out: Inhibitory activity of EGFR on kinase (IC50, nM) T790M/L858R
Here the recorded IC50 is given for each entry.
Answer format: numeric, nM implied, no suffix.

Sample answers from the record:
MOLECULE	SYSTEM	IC50 [nM]
C=CC(=O)N1CCC[C@@H](n2c(=O)c(C3CCCCC3)nc3cnc(Nc4ccc(N5CCN(C)CC5)cc4OC)nc32)C1 [Compound 46]	EGFR-L858R/T790M (Homo sapiens, UniProt P00533, L858R/T790M)	13.3
C=CC(=O)Nc1cccc(-n2c(=O)c(-c3ccccc3)nc3cnc(Nc4ccc(N5CCN(C)CC5)c(C)c4)nc32)c1 [Compound 47]	EGFR-L858R/T790M (Homo sapiens, UniProt P00533, L858R/T790M)	0.2
C=CC(=O)Nc1cccc(-n2c(=O)c(C(C)C)nc3cnc(Nc4ccc(N5CCN(C)CC5)c(OC)c4)nc32)c1 [Compound 32]	EGFR-L858R/T790M (Homo sapiens, UniProt P00533, L858R/T790M)	7.1
C=CC(=O)N1CCC[C@H](Cn2c(=O)cnc3cnc(Nc4ccc(N5CCN(C)CC5)cc4OC)nc32)C1 [Compound 17]	EGFR-L858R/T790M (Homo sapiens, UniProt P00533, L858R/T790M)	191
C=CC(=O)Nc1cccc(-n2c(=O)c(-c3ccccc3)nc3cnc(Nc4ccc(N(C)CCN(C)C)cc4OC)nc32)c1 [Compound 20]	EGFR-L858R/T790M (Homo sapiens, UniProt P00533, L858R/T790M)	1.3

(Q) For EGFR-L858R/T790M (Homo sapiens, UniProt P00533, L858R/T790M), provide IC50 of C=CC(=O)N1CCC(n2c(=O)cnc3cnc(Nc4ccc(N5CCN(C)CC5)cc4OC)nc32)CC1 [Compound 15] please.
(A) 2250

----------
Here the recorded IC50 is given for each entry.
Target: EGFR-L858R/T790M (Homo sapiens, UniProt P00533, L858R/T790M)
Construct: purchased Invitrogen PV4879
Test: Kinase activity test (FRET), EGFR T790M/L858R
Assay type: biochemical
Conditions: EGFR T790M/L858R; read-out: Inhibitory activity of EGFR on kinase (IC50, nM) T790M/L858R
Answer format: numeric, nM implied, no suffix.

COMPOUND	READOUT UNITS	IC50
C=CC(=O)N1CCC[C@@H](Cn2c(=O)c(C(C)C)nc3cnc(Nc4ccc(N5CCN(C)CC5)cc4OC)nc32)C1 [Compound 21]	nM	251
C=CC(=O)Nc1cccc(-n2c(=O)c(C(C)C)nc3cnc(Nc4ccc(N5CCN(C)CC5)cc4OC)nc32)c1 [Compound 37]	nM	4.9
C=CC(=O)Nc1cccc(-n2c(=O)cnc3cnc(Nc4ccc(N5CCN(C)CC5)c(C)c4)nc32)c1 [Compound 5]	nM	0.6

(Q) For EGFR-L858R/T790M (Homo sapiens, UniProt P00533, L858R/T790M), provide IC50 of COc1cc(N2CCN(C)CC2)ccc1Nc1ncc2nc(-c3ccccc3)c(=O)n(-c3cccc(N)c3)c2n1 [Compound 51] please.
(A) 251

(Q) For EGFR-L858R/T790M (Homo sapiens, UniProt P00533, L858R/T790M), provide IC50 of C=CC(=O)N1CC[C@H](n2c(=O)c(C(C)C)nc3cnc(Nc4ccc(N5CCN(C)CC5)c(C)c4)nc32)C1 [Compound 24] please.
(A) 576
